Target under test: human Nav1.7 (Homo sapiens (Human), UniProt Q15858)
Sequence (Q15858 whole entry): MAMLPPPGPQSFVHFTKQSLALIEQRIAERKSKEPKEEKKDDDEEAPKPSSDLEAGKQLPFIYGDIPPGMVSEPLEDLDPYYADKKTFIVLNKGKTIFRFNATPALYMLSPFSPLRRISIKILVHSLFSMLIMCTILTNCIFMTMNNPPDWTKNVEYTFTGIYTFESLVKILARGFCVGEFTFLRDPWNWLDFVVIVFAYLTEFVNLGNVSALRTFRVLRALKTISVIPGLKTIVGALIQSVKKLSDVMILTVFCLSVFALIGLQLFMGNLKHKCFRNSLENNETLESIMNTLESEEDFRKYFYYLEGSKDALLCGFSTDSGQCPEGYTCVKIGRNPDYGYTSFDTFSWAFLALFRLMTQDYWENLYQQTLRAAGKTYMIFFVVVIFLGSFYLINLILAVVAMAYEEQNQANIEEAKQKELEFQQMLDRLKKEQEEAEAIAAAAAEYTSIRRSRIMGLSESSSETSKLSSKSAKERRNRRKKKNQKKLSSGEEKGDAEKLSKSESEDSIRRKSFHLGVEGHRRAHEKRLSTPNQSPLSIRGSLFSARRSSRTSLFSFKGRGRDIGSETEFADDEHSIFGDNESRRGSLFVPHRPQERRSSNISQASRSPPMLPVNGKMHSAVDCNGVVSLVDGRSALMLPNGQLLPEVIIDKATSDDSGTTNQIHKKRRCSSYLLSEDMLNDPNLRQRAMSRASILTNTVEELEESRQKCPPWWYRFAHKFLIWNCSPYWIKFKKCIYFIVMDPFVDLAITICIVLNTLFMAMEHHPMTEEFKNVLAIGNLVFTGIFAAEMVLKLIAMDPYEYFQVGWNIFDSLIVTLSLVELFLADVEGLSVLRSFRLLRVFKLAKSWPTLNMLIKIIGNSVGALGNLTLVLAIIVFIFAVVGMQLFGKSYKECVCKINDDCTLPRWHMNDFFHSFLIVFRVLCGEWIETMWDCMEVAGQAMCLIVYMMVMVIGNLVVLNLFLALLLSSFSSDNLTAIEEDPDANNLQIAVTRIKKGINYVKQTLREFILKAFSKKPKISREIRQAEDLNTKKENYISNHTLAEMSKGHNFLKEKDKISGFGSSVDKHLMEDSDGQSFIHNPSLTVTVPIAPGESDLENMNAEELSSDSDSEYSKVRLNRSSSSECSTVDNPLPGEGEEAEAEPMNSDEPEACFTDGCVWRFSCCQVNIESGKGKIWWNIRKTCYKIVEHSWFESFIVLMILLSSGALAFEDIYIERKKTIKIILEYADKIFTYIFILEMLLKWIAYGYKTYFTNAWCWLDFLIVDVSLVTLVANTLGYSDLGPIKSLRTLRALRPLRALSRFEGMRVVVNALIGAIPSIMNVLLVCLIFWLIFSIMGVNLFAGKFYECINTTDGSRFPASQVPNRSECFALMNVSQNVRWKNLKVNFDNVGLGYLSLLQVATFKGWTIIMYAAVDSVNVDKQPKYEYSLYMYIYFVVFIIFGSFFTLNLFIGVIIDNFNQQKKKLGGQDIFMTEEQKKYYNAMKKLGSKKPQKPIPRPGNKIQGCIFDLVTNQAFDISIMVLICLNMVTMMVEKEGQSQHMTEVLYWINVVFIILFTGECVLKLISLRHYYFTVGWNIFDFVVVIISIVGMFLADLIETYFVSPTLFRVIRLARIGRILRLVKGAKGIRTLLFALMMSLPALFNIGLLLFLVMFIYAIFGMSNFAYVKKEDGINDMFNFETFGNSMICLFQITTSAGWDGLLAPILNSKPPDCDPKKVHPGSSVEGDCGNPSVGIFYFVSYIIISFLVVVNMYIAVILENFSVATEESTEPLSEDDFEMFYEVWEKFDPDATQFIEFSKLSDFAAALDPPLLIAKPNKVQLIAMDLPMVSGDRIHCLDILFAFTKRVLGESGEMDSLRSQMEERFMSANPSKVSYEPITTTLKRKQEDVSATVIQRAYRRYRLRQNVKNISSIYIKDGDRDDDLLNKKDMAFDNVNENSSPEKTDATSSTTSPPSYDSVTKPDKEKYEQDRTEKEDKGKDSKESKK
Sequence (Q07699 19-218 partner): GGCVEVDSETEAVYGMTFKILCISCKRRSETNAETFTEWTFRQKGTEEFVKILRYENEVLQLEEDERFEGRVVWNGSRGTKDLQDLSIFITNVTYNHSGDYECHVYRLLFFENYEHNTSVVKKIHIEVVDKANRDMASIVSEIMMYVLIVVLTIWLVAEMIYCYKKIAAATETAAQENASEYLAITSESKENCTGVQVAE
Protocol: Human Nav1.7 inhibitory activity evaluation (automated patch clamp QPatch16X, HEK293A cells stably expressing human Nav1.7 and human Navβ1)
Type: cell-based
Assay setup: HEK293A cells stably expressing human Nav1.7 and human Navβ1, automated patch clamp QPatch16X
// reported IC50 per item

[
  {
    "Compound": "CN1Cc2nc(C(=O)NC3COc4ccccc4C3)cn2CC1c1ccccc1 (stereo not shown)",
    "IC50": "< 1000 nM"
  },
  {
    "Compound": "N#Cc1ccc2c(c1)C[C@@H](NC(=O)c1cc3n(n1)CCC(COCc1ccccc1)O3)CO2 (stereo partly shown)",
    "IC50": "< 1000 nM"
  },
  {
    "Compound": "O=C(N[C@H]1COc2ccc(CC(F)F)cc2C1)c1cc2n(n1)CCC(COC(F)(F)F)O2 (single isomer, unassigned) [136 (isomer A)]",
    "IC50": "< 1000 nM"
  },
  {
    "Compound": "O=C(N[C@H]1COc2ccc(-c3ccccn3)cc2C1)c1cc2n(n1)CCC(COCC(F)(F)F)O2 (single isomer, unassigned) [131 (isomer A)]",
    "IC50": "< 1000 nM"
  },
  {
    "Compound": "CN1Cc2nc(C(=O)N3CC(Oc4cccc(C(F)(F)F)n4)C3)cn2CC1c1ccccc1 (stereo not shown)",
    "IC50": "< 10000 nM"
  },
  {
    "Compound": "O=C(N[C@H]1COc2ccc(Cl)cc2C1)c1cn2c(n1)CCC(OCC(F)(F)F)C2 (stereo partly shown) [Example 38]",
    "IC50": "< 10000 nM"
  },
  {
    "Compound": "N#Cc1ccc2c(c1)C[C@@H](NC(=O)c1cc3n(n1)CCC(COCC1CC1)O3)CO2 (single isomer, unassigned) [103 (isomer B)]",
    "IC50": "< 10000 nM"
  }
]

---

Target under test: human Nav1.7 (Homo sapiens (Human), UniProt Q15858)
Protocol: Human Nav1.7 inhibitory activity evaluation (automated patch clamp QPatch16X, HEK293A cells stably expressing human Nav1.7 and human Navβ1)
Type: cell-based
Assay setup: human Nav1.7, automated patch clamp
pIC50: −log10 of the molar value.

[
  {
    "Compound": "COC(C)(C)C#CC1CCn2nc(C(=O)N[C@H]3COc4ccc(C#N)cc4C3)cc2O1 (some centres unmarked) [Example 394]",
    "Target under test": "human Nav1.7 (Homo sapiens (Human), UniProt Q15858)",
    "pIC50": "> 5.00"
  },
  {
    "Compound": "O=C(N[C@H]1COc2ccc(CC(F)F)cc2C1)c1cc2n(n1)CC(CCOC(F)(F)F)O2 (some centres unmarked) [Example 210]",
    "Target under test": "human Nav1.7 (Homo sapiens (Human), UniProt Q15858)",
    "pIC50": "> 6.00"
  },
  {
    "Compound": "CCC1(O)CCn2nc(C(=O)N[C@H]3COc4ccc(C(F)(F)F)cc4C3)cc2OC1 (some centres unmarked) [Example 582]",
    "Target under test": "human Nav1.7 (Homo sapiens (Human), UniProt Q15858)",
    "pIC50": "> 5.00"
  },
  {
    "Compound": "O=C(N[C@H]1COc2ccc(C(F)(F)F)cc2C1)c1cc2n(n1)CC(COCC1CC1)CO2 (some centres unmarked) [Example 539]",
    "Target under test": "human Nav1.7 (Homo sapiens (Human), UniProt Q15858)",
    "pIC50": "> 5.00"
  },
  {
    "Compound": "N#Cc1ccc2c(c1)C[C@@H](NC(=O)c1cc3n(n1)CC(C(F)(F)COCC1CC1)O3)CO2 (some centres unmarked) [Example 541]",
    "Target under test": "human Nav1.7 (Homo sapiens (Human), UniProt Q15858)",
    "pIC50": "> 6.00"
  },
  {
    "Compound": "O=C(NC1COc2ccc(Cl)cc2C1O)c1cc2n(n1)CCC(COCC1CC1)O2 (centres unmarked) [Example 571]",
    "Target under test": "human Nav1.7 (Homo sapiens (Human), UniProt Q15858)",
    "pIC50": "> 5.00"
  },
  {
    "Compound": "N#Cc1ccc2c(c1)C[C@@H](NC(=O)c1cc3n(n1)CCC(CCOC(F)(F)F)O3)CO2 (some centres unmarked) [Example 143]",
    "Target under test": "human Nav1.7 (Homo sapiens (Human), UniProt Q15858)",
    "pIC50": "> 6.00"
  },
  {
    "Compound": "N#Cc1ccc2c(c1)C[C@@H](NC(=O)c1cc3n(n1)CCN(CCC1CC1)C3)CO2 [Example 491]",
    "Target under test": "human Nav1.7 (Homo sapiens (Human), UniProt Q15858)",
    "pIC50": "> 5.00"
  }
]

---

Listing: IC50 of selected molecules
Target under test: UniProt:Q15858
Protocol: Human Nav1.7 inhibitory activity evaluation (automated patch clamp QPatch16X, HEK293A cells stably expressing human Nav1.7 and human Navβ1)
Type: cell-based
Assay setup: human Nav1.7, automated patch clamp

[
  {
    "Molecule": "O=C(NCC1COc2ccc(Cl)cc2C1)c1cc2n(n1)CCC(COC(F)(F)F)O2 (centres unmarked)",
    "IC50": "< 10000 nM"
  },
  {
    "Molecule": "O=C(N[C@H]1COc2ccc(COCC(F)(F)F)cc2C1)c1cc2n(n1)CC(COC(F)(F)F)O2 (some centres unmarked) [Example 195]",
    "IC50": "< 1000 nM"
  },
  {
    "Molecule": "O=C(N[C@H]1COc2ccc(Cl)cc2C1)c1cc2n(n1)CCN(CC1CCC1(F)F)C2 (some centres unmarked)",
    "IC50": "< 1000 nM"
  },
  {
    "Molecule": "O=C(N[C@H]1COc2ccc(Cl)cc2C1)c1cc2n(n1)CCC(C1CC1)O2 (some centres unmarked)",
    "IC50": "< 1000 nM"
  },
  {
    "Molecule": "O=C(N[C@H]1COc2ccc(Cl)cc2C1)c1cc2n(n1)CCC(C#CC1CC1)O2 (some centres unmarked)",
    "IC50": "< 1000 nM"
  },
  {
    "Molecule": "COc1ncccc1-c1ccc2c(c1)C[C@@H](NC(=O)c1cc3n(n1)CCC(C(F)(F)F)O3)CO2 (some centres unmarked)",
    "IC50": "< 10000 nM"
  },
  {
    "Molecule": "O=C(N[C@H]1COc2ccc(C(F)(F)F)cc2C1F)c1cc2n(n1)CCN(CCOCC(F)F)C2 (some centres unmarked)",
    "IC50": "< 1000 nM"
  },
  {
    "Molecule": "Cn1ccc(-c2ccc3c(c2)C[C@@H](NC(=O)c2cc4n(n2)CC(CCOCC(F)(F)F)O4)CO3)n1 (some centres unmarked) [Example 205]",
    "IC50": "< 10000 nM"
  }
]

---

Listing of recorded IC50 by entry.
Target under test: human Nav1.7 (Homo sapiens (Human))
Protocol: Human Nav1.7 inhibitory activity evaluation (automated patch clamp QPatch16X, HEK293A cells stably expressing human Nav1.7 and human Navβ1)
Assay type: cell-based
Assay setup: human Nav1.7, automated patch clamp

[
  {
    "Molecule": "O=C(N[C@H]1COc2ccc(C(F)(F)F)cc2C1O)c1cc2n(n1)CC(CCOCC(F)(F)F)O2 (stereo partly shown) [Example 589]",
    "IC50": "< 10 µM"
  },
  {
    "Molecule": "O=C(N[C@H]1COc2ccc(Cl)cc2C1)c1cc2n(n1)CCC(OCCOCC(F)(F)F)CO2 (stereo partly shown)",
    "IC50": "< 10 µM"
  },
  {
    "Molecule": "CCOc1ncccc1C1CCn2nc(C(=O)N[C@H]3COc4ccc(C#N)cc4C3)cc2O1 (stereo partly shown)",
    "IC50": "< 1 µM"
  },
  {
    "Molecule": "O=C(N[C@H]1COc2ccc(-c3ccccn3)cc2C1)c1cc2n(n1)CCC(C(F)(F)F)O2 (stereo partly shown)",
    "IC50": "< 10 µM"
  }
]
